Origin of the recorded values: ChEMBL document CHEMBL5154739

Target: Protein-glutamine gamma-glutamyltransferase (Homo sapiens) (UniProt P21980)
Sequence (P21980 whole entry): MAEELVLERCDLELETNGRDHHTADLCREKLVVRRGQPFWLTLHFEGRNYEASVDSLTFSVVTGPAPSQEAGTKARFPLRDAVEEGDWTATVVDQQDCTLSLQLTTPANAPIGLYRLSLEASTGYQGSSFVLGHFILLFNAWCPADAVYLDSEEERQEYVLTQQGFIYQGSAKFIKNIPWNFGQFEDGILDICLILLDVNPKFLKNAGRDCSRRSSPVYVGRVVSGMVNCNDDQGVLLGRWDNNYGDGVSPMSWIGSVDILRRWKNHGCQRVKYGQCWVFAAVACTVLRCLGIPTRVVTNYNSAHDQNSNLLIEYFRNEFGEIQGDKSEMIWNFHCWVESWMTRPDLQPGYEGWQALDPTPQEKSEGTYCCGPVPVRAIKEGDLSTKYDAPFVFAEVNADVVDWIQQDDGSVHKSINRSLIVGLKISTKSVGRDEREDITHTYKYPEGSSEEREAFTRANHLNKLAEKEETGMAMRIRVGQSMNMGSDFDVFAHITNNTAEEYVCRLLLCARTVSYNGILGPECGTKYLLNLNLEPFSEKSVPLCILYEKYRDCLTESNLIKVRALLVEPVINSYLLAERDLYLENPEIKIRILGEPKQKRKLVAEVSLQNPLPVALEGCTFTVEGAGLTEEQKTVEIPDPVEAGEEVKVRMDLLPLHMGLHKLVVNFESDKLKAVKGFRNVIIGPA
Experiment: Inhibition of TG2 (unknown origin) using Cbz-Glu(gamma-p-nitrophenyl ester)Gly (AL5) as substrate assessed as Kinact/Ki ratio and measured by colorimetric assay
readout: Ratio

The cases that follow already have their Ratio on record.
{"molecule": "C=CC(=O)NCCCC[C@H](NC(=O)c1ccccn1)C(=O)N1CCN(C(=O)c2cccc3ccccc23)CC1", "Ratio": "9.6 10^3/M/min"}
{"molecule": "C=CC(=O)NCCCC[C@H](NC(=O)Cc1ccccc1F)C(=O)N1CCN(C(=O)c2cccc3ccccc23)CC1", "Ratio": "443 10^3/M/min"}
{"molecule": "C=CC(=O)NCCCC[C@H](NC(=O)Cc1ccc(Cl)c(Cl)c1)C(=O)N1CCN(C(=O)c2cccc3ccccc23)CC1", "Ratio": "131 10^3/M/min"}

Return reported Ratio values for all items listed beneath this line.
1. C=CC(=O)NCCCC[C@H](NC(=O)Cc1ccccc1OC)C(=O)N1CCN(C(=O)c2cccc3ccccc23)CC1
2. C=CC(=O)NCCCC[C@H](NC(=O)c1ccncc1)C(=O)N1CCN(C(=O)c2cccc3ccccc23)CC1
3. C=CC(=O)NCCCC[C@H](NC(=O)Cc1ccc(F)cc1)C(=O)N1CCN(C(=O)c2cccc3ccccc23)CC1
4. C=CC(=O)NCCCC[C@H](NC(=O)Cc1ccc(F)cc1F)C(=O)N1CCN(C(=O)c2cccc3ccccc23)CC1
5. C=CC(=O)NCCCC[C@H](NC(=O)Cc1cccc(Cl)c1Cl)C(=O)N1CCN(C(=O)c2cccc3ccccc23)CC1
6. C=CC(=O)NCCCC[C@H](NC(=O)c1nccn1C)C(=O)N1CCN(C(=O)c2cccc3ccccc23)CC1
7. C=CC(=O)NCCCC[C@H](NC(=O)Cc1ccccc1C(F)(F)F)C(=O)N1CCN(C(=O)c2cccc3ccccc23)CC1

Ans.
1. 299 10^3/M/min
2. 12.7 10^3/M/min
3. 119 10^3/M/min
4. 224 10^3/M/min
5. 170 10^3/M/min
6. 11.5 10^3/M/min
7. 100 10^3/M/min
